Tested on: Wolbachia pipientis
measurementProtocol: Anti-Wolbachia Cell-Based Screen
Format: functional
Set-up: scale not given: in the data most compounds retested in dose-response had high values
experimentalConditions: 5 µM
In all, about 48,000 compounds went through this assay and about 13,000 (27%) showed an effect of 50% or more. The list shows a part of the results.
// values below are reported Percent Effect
propertyName: Percent Effect (%)

• Cn1cccc1-c1cc(C(=O)N2CCCC2c2nccs2)[nH]n1 (centres undefined) = -11.21
• Cc1cc(C)n(CC2CCCN2C(=O)Cc2cn3ccsc3n2)n1 (centres undefined) = 5.291
• CNC(=O)[C@H]1C[C@@H]2CN(C(=O)c3cnc(C)cn3)C[C@@H]2N1C = 18.09
• Cc1ccc2[nH]c3c(c2c1)CN(C(=O)CN(C)CC1OCCO1)CC3 = 95.71
• Cc1cnc(C(=O)N2C[C@H]3CCCC(OCc4cccnc4)[C@H]3C2)cn1 (some centres undefined) = -8.577
• Cc1ccn2ncc(C(=O)N3CCCC(c4cc(C)[nH]n4)C3)c2n1 (centres undefined) = 1.6
• Cc1cc(C)n(Cc2cc(C(=O)N[C@H]3CCCCNC3=O)n[nH]2)n1 = 1.384
• CN(C)C[C@@H]1[C@H]2CN(C(=O)c3cc(=O)[nH]c4ccc(F)cc34)C[C@@H]12 = -6.499
• Cc1cnc(C(=O)N2C[C@H]3CN(Cc4cccs4)C[C@H]3C2)cn1 = 71.69
